This collection of values is drawn from patent US20140087995A1.

Experimental Target: T1, human amylin receptor (amylin 3(a) receptor: human calcitonin receptor plus RAMP-3) (human, UniProt P30988 25-474; O60896 24-148, limits assumed)
T1 sequence (looked up) 1: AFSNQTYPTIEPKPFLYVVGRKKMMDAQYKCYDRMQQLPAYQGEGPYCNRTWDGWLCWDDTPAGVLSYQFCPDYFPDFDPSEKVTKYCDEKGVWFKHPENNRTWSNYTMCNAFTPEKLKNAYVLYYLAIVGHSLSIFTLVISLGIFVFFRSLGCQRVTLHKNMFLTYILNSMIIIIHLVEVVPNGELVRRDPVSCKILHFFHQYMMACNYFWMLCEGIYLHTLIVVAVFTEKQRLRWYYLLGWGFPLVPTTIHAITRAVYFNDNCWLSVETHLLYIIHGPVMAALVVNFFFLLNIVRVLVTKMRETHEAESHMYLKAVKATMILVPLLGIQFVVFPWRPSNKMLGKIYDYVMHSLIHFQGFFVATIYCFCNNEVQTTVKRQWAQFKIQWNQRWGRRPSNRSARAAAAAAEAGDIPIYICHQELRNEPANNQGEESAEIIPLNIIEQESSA
T1 sequence (looked up) 2: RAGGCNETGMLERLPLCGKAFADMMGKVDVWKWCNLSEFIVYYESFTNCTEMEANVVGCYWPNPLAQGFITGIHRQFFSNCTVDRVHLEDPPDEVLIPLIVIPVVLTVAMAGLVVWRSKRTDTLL
Test: cell-based or functional assay
Numbered stars: 1 amine (or outer) side, 2 acyl side, 3 side chain; on linkers, the order of the positions; unused ones are H or OH. Bridge positions count the residues as written; N and C are the ends. Side chains are listed from the residue outwards. Ends that are not written are not given here. * marks the point of attachment. C20 diacid = O=C(O)CCCCCCCCCCCCCCCCCCC(=O)*; γGlu = O=C(O)[C@H](CCC(=O)[*:2])N[*:1]; AEEA = NCCOCCOCC(=O)O
Measured Property: Ratio hCT/hAmylin funct. (ratio)
Answer with a number only, understood to be in ratio.

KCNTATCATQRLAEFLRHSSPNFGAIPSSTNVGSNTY (C20 diacid-gGlu-2xOEG on the alpha amino group of the N-terminal residue; disulfide bridge Cys2-Cys7; C-terminal amide, Synthetic acylated analogue of human amylin; also called compound 19) : 17.4
KCNTATCATQRLANFLRHSSPNFGAIPSSTNVGSKTY (C20 diacid-gGlu on the alpha amino group of the N-terminal residue; disulfide bridge Cys2-Cys7; C-terminal amide, Synthetic acylated analogue of human amylin; also called compound 34) [N^α1-[(4S)-4-carboxy-4-(19-carboxynonadecanoylamino)butanoyl]-[Arg17,Pro21,Pro27,Lys35]-h-amylin] : 8.4
KCNTATCATQRLANFLRHSSPNFGAIPSSTNVGHNTY (C20 diacid-gGlu on the alpha amino group of the N-terminal residue; disulfide bridge Cys2-Cys7; C-terminal amide, Synthetic acylated analogue of human amylin; also called compound 40) [N^α1-[(4S)-4-carboxy-4-(19-carboxynonadecanoylamino)butanoyl]-[Arg17,Pro21,Pro27,His34]-h-amylin] : 16.4
K([AEEA-γGlu-C20 diacid])CNTATCATQRLANFLRHSSPNFGAIPPSTPVGSNTY-NH2 (disulfide 2-7, Synthetic acylated analogue of human amylin; also called compound 53) : 9.8
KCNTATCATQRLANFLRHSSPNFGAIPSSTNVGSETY (C20 diacid-gGlu on the alpha amino group of the N-terminal residue; disulfide bridge Cys2-Cys7; C-terminal amide, Synthetic acylated analogue of human amylin; also called compound 23) [N^α1-[(4S)-4-carboxy-4-(19-carboxynonadecanoylamino)butanoyl]-[Arg17,Pro21,Pro27,Glu35]-h-amylin] : 8.9
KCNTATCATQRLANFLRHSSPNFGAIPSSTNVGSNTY (C20 diacid-gGlu-2xOEG on the alpha amino group of the N-terminal residue; disulfide bridge Cys2-Cys7; C-terminal amide, Synthetic acylated analogue of human amylin; also called compound 24) : 23.1

Value lookup for Ratio hCT/hAmylin funct.; key = KCNTATCATQRLANFLRHSSPNFGAIPSSTNVGRNTY (C20 diacid-gGlu on the alpha amino group of the N-terminal residue; disulfide bridge Cys2-Cys7; C-terminal amide, Synthetic acylated analogue of human amylin; also called compound 39) [N^α1-[(4S)-4-carboxy-4-(19-carboxynonadecanoylamino)butanoyl]-[Arg17,Pro21,Pro27,Arg34]-h-amylin]
11.6

And for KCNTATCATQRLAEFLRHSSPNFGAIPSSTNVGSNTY (C20 diacid-gGlu on the alpha amino group of the N-terminal residue; disulfide bridge Cys2-Cys7; C-terminal amide, Synthetic acylated analogue of human amylin; also called compound 9) [N^α1-[(4S)-4-carboxy-4-(19-carboxynonadecanoylamino)butanoyl]-[Glu14,Arg17,Pro21,Pro27]-h-amylin] ?
7.4
